Cited source for all entries: patent US9040501B2

- testedOn: cytidine deaminase (CDA) (Homo sapiens (Human))
- Sequence (P32320 whole entry): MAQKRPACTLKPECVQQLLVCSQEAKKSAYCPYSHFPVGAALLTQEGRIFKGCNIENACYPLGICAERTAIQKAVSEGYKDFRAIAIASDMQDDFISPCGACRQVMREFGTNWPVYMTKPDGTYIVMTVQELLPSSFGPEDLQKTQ
- procedureDetails: Effect of ER-876437 on the half-life of decitabine in the presence of CDA in Tris-HCl buffer at 37° C.
- Assay type: biochemical
- runParameters: Tris-HCl buffer, pH 7.4, Estimated T1/2 of decitabine, Decitabine in Tris-HCl buffer at 37° C. (absence of CDA)
measure: half-life at 0.2 mM (h)
Answer in h, number only, no unit symbol.

Lab entry: cytidine deaminase (CDA) (Homo sapiens (Human)) assay, compound Nc1ncn([C@H]2C[C@H](O)[C@@H](CO)O2)c(=O)n1 [decitabine, 5-aza-2′-deoxycytidine] , half-life at 0.2 mM = 9
